target-or-system: COI1/JAZ1 co-receptor (Arabidopsis thaliana, UniProt O04197+Q9LMA8)
Construct: Full-length Arabidopsis thaliana COI1 and ASK1 were co-expressed; Full-length JAZ substrate proteins were expressed as 6×His-fusion proteins in Escherichia coli; GST (cleaved yes); 6xHis; made in house; host or cells: Hi5 insect cells (COI1/ASK1); Escherichia coli (JAZ1)
Sequence (O04197 whole entry, the tested form may be a part): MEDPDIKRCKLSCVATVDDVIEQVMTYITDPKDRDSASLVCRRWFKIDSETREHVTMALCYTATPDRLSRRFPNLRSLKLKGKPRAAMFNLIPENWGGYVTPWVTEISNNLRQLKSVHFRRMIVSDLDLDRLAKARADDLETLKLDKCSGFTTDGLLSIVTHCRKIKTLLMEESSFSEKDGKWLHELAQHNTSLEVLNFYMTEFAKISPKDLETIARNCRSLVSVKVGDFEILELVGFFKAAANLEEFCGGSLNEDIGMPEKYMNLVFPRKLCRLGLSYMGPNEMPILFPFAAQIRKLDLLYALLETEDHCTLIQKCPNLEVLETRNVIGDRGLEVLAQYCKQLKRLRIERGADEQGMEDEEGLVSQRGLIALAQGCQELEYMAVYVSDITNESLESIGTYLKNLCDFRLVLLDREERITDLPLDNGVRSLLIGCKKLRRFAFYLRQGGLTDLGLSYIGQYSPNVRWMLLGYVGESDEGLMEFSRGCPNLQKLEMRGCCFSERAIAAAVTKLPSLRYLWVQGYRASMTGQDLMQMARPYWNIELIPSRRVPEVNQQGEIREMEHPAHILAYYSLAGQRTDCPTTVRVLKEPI
Sequence (Q39255 whole entry partner, the tested form may be a part): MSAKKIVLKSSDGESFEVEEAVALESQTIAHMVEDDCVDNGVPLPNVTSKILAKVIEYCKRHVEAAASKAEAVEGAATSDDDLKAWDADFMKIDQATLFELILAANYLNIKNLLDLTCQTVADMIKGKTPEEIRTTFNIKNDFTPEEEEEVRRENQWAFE
Sequence (Q9LMA8 whole entry, the tested form may be a part): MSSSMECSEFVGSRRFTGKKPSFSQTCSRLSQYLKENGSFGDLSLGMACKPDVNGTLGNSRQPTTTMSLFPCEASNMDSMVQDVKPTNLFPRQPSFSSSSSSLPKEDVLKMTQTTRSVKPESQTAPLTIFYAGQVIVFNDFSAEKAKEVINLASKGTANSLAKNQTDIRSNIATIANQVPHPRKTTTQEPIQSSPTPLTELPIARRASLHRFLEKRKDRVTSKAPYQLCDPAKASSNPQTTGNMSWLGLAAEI
assay-details: Ligand-binding based reconstitution assay (inositol phosphate rescue) with dialyzed COI1/ASK1 and JAZ1
reported-conditions: 1 μM Ins(1,2,4,5,6)P5; read-out: Kd, saturation binding of 3H-coronatine to dialyzed COI1 in the presence of InsP5
Experimental: Radioligand binding was assayed on purified proteins, with 2 mg COI1/ASK1 complex and JAZ proteins at a 1:3 molar ratio. Reactions were prepared in […] final volume and in a binding buffer containing 20 mM Tris-HCl 200 mM NaCl, and 10% glycerol. Saturation binding experiments were conducted with serial dilutions of 3H-coronatine in binding buffer. Nonspecific binding was determined in the presence of 300 mM coronatine. […] Total binding was determined in the presence of vehicle only. […]
reported-metric: Kd (nM)

• CC[C@H]1C=C(C(=O)N[C@@]2(C(=O)O)C[C@@H]2CC)[C@H]2CCC(=O)[C@H]2C1 [coronatine] = 30
